assay: In vivo pharmacokinetic (PK) studies in rats; parameters: species or system Sprague-Dawley (SD) rats; details: male, Sprague-Dawley, rat, plasma; 100 mg/kg, IV
OUTCOME MEASURE: AUC(0-t) (µg·h/mL)

molecule="Cn1c(=O)ccc2ccc(F)c(OCCNC[C@H]3CN(c4cnc5c(n4)NC(=O)CO5)C(=O)O3)c21 [Compound 2]" endpoint_result=118

###

test: In vivo pharmacokinetic (PK) studies in rats; design: species or system Sprague-Dawley (SD) rats; conditions: Sprague-Dawley, rat, plasma; 10 mg/kg PO, male SD rats
OUTCOME MEASURE: Cmax (ng/mL)

compound="Cn1c(=O)ccc2ccc(F)c(OCCNC[C@H]3CN(c4cnc5c(n4)NC(=O)CO5)C(=O)O3)c21 [Compound 2]" outcome_measure=Cmax measure_unit=ng/mL endpoint_result=2580
